Each recorded value in this set is attributed to ChEMBL document CHEMBL3714751.

molecular target: UniProtKB P49654; experiment: Antagonist activity against rat P2X3 receptor expressed in CHOK1 cells assessed as inhibition of alpha,beta-meATP-induced calcium response incubated for 20 mins by Fluo-3AM dye based FLIPR assay; assay type: functional, cell-based; conditions: CHO-K1
Sequence (P49654 whole entry): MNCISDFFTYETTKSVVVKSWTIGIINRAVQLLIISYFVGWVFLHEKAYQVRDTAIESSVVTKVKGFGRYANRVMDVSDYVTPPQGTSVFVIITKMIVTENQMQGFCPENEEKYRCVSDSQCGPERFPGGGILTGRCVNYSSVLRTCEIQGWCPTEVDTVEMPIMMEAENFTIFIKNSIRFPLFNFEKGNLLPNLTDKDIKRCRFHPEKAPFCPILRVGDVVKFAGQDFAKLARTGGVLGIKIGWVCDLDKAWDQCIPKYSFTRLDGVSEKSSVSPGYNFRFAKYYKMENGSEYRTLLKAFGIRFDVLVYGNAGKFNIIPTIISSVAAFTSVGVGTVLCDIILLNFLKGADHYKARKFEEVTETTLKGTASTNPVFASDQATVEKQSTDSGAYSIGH
Activity calls are given as the source filed them. The calls are words filed in the database; no cut-off is given here.
measurement_name: inhibition

Answered examples (4):
INSERT INTO measurements (compound_string, recorded_measurement) VALUES
  ('COc1cc(C(C)C)c(Oc2cnc(NC(=O)CN3CCC(C(C)=O)CC3)nc2N)cc1I', 'Active'),
  ('COc1cc(C(C)C)c(Oc2cnc(NC(=O)CN(C)C)nc2N)cc1I', 'Active'),
  ('COc1cc(C(C)C)c(Oc2cnc(NC(=O)CN3CCNCC3)nc2N)cc1I', 'Active'),
  ('CCCNCC(=O)Nc1ncc(Oc2cc(I)c(OC)cc2C(C)C)c(N)n1', 'Active');

stdin: What value of measured inhibition is listed for COc1cc(C(C)C)c(Oc2cnc(NC(=O)CNC3CCCC3)nc2N)cc1I ?
stdout: Active

stdin: Item COc1cc(C(C)C)c(Oc2cnc(NC(=O)CNC3CCCCC3)nc2N)cc1I has what recorded inhibition?
stdout: Active

stdin: Given the entry COc1cc(C(C)C)c(Oc2cnc(NC(=O)CNCC(C)C)nc2N)cc1I , report its measured inhibition.
stdout: Active

stdin: Requested read-out: inhibition. Entry: COc1cc(C(C)C)c(Oc2cnc(NC(=O)CN(C)C3CCCCC3)nc2N)cc1I
stdout: Active

stdin: Which inhibition is listed for CCN(CCCCO)CC(=O)Nc1ncc(Oc2cc(I)c(OC)cc2C(C)C)c(N)n1 ?
stdout: Active

stdin: I have this compound here, C#Cc1cc(Oc2cnc(NC(=O)CN3CCN(C)CC3)nc2N)c(C(C)C)cc1OC , and I need its recorded inhibition.
stdout: Active
